// data source = patent US7709471B2

Molecular target: recombinant Plk1 (Homo sapiens)
Experiment: In Vitro Plk1 Enzyme Assay (SPA, GST-Cdc25C phosphorylation)
Details: ATP 64 nM, 90 minutes, read-out: IC50 (Plk1 enzyme inhibition)
Quantity Measured: IC50

Compound: CN1C(=O)CCN(C2CCCC2)c2nc(Nc3ccccc3Cc3ccccc3)ncc21
Study System: recombinant Plk1 (Homo sapiens)
Result: < 100000 nM
--
Compound: COc1cc(C(=O)N[C@H]2C[C@H]3CCC[C@@H](C2)N3C)ccc1Nc1ncc2c(n1)N(C1CCCC1)CCC(=O)N2C
Study System: recombinant Plk1 (Homo sapiens)
Result: < 300 nM
--
Compound: CN1C(=O)CCN(C2CCCC2)c2nc(Nc3cccc(CCO)c3)ncc21
Study System: recombinant Plk1 (Homo sapiens)
Result: < 1000 nM
--
Compound: COc1cc(C(=O)N[C@H]2CCN(C(=O)OC(C)(C)C)C2)ccc1Nc1ncc2c(n1)N(C1CCCC1)CCC(=O)N2C
Study System: recombinant Plk1 (Homo sapiens)
Result: < 100000 nM
--
Compound: COc1cc(C(=O)NCCN2CCCCC2)ccc1Nc1ncc2c(n1)N(C1CCCC1)CCC(=O)N2C
Study System: recombinant Plk1 (Homo sapiens)
Result: < 1000 nM
--
Compound: COc1cc(C(=O)NC2CCN(C)CC2)ccc1Nc1ncc2c(n1)N(C1CCCC1)CC1(CC1)C(=O)N2C
Study System: recombinant Plk1 (Homo sapiens)
Result: < 300 nM
--
Compound: CN1C(=O)c2cccc(Nc3ncc4c(n3)N(C3CCCC3)CCC(=O)N4C)c2C1=O
Study System: recombinant Plk1 (Homo sapiens)
Result: < 100000 nM
--
Compound: CN1C(=O)CCN(C2CCCC2)c2nc(Nc3ccccc3C(=O)c3ccccc3)ncc21
Study System: recombinant Plk1 (Homo sapiens)
Result: < 100000 nM
--
Compound: CCN1CCCC1CNC(=O)c1ccc(Nc2ncc3c(n2)N(C2CCCC2)CCC(=O)N3C)c(OC)c1 (stereo not shown)
Study System: recombinant Plk1 (Homo sapiens)
Result: < 300 nM
--
Compound: CN(C)CC(C)(C)CNC(=O)c1ccc(Nc2ncc3c(n2)N(C2CCCC2)CCC(=O)N3)c(Cl)c1
Study System: recombinant Plk1 (Homo sapiens)
Result: < 100000 nM
--
Compound: CN1CCC(NC(=O)c2ccc(Nc3ncc4c(n3)N(C3CCCC3)CCC(=O)N4C)c(O)c2)CC1
Study System: recombinant Plk1 (Homo sapiens)
Result: < 300 nM
--
Compound: CN1CCC(NC(=O)c2cnc(Nc3ncc4c(n3)N(C3CCCC3)CCC(=O)N4C)o2)CC1
Study System: recombinant Plk1 (Homo sapiens)
Result: < 100000 nM
--
Compound: COc1cc(C(=O)NC2CCN(C)CC2)ccc1Nc1ncc2c(n1)N(C1CCCCC1)CC1(CC1)C(=O)N2C
Study System: recombinant Plk1 (Homo sapiens)
Result: < 300 nM
--
Compound: COc1ccc(Nc2ncc3c(n2)N(C2CCCC2)CCC(=O)N3C)cn1
Study System: recombinant Plk1 (Homo sapiens)
Result: < 1000 nM
--
Compound: CC(C)N1CCC(=O)N(C)c2cnc(Nc3ccc(C(=O)NCCN4CCOCC4)cc3Cl)nc21
Study System: recombinant Plk1 (Homo sapiens)
Result: < 1000 nM
--
Compound: COc1cc(C(=O)NC2CCCCC2)ccc1Nc1ncc2c(n1)N(C1CCCC1)CCC(=O)N2C
Study System: recombinant Plk1 (Homo sapiens)
Result: < 1000 nM

###

Examples of molecules with documented pIC50 follow.
Biological target: recombinant Plk1 (Homo sapiens, UniProt P53350)
Sequence (P53350 whole entry): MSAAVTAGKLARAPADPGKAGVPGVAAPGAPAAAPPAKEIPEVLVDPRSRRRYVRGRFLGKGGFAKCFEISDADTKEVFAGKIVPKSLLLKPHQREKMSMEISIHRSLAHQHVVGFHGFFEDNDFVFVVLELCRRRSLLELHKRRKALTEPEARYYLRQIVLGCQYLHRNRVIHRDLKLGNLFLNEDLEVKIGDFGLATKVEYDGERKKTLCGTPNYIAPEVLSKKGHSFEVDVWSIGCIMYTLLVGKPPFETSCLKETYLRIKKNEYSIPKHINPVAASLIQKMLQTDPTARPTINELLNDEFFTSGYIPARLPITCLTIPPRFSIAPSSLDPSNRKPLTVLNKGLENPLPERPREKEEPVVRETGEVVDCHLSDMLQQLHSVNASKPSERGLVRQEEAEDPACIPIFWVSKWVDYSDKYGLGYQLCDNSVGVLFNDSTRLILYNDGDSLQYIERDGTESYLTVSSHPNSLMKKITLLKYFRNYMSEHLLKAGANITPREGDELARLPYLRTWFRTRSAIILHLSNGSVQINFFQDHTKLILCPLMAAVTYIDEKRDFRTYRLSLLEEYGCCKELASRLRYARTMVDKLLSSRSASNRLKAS
Assay: In Vitro Plk1 Enzyme Assay (SPA, GST-Cdc25C phosphorylation)
Conditions: ATP 64 nM, 90 minutes, read-out: IC50 (Plk1 enzyme inhibition)
pIC50: −log10 of the molar value.

Molecule: COc1cc(C(=O)NC2CCN(C3CC3)CC2)ccc1Nc1ncc2c(n1)N(C1CCCC1)CCC(=O)N2C [Example 11]
Study System: recombinant Plk1 (Homo sapiens, UniProt P53350)
pIC50: > 6.52
--
Molecule: COCCN1CCN(c2ccc(Nc3ncc4c(n3)N(C3CCCC3)CCC(=O)N4C)c(OC)c2)CC1 [Example 105]
Study System: recombinant Plk1 (Homo sapiens, UniProt P53350)
pIC50: > 6.00
--
Molecule: COc1cc(C(=O)NCCN2CCN(C)CC2)ccc1Nc1ncc2c(n1)N(C1CCCC1)CCC(=O)N2C [Example 34]
Study System: recombinant Plk1 (Homo sapiens, UniProt P53350)
pIC50: > 6.52
--
Molecule: COc1ccc(NC(C)=O)cc1Nc1ncc2c(n1)N(C1CCCC1)CCC(=O)N2C [Example 176]
Study System: recombinant Plk1 (Homo sapiens, UniProt P53350)
pIC50: > 6.52
--
Molecule: COc1ccc(NC(=O)c2ccc(Nc3ncc4c(n3)N(C3CCCC3)CCC(=O)N4C)c(OC)c2)cc1 [Example 77]
Study System: recombinant Plk1 (Homo sapiens, UniProt P53350)
pIC50: > 4.00
--
Molecule: CCNS(=O)(=O)c1ccccc1Nc1ncc2c(n1)N(C1CCCC1)CCC(=O)N2C [Example 154]
Study System: recombinant Plk1 (Homo sapiens, UniProt P53350)
pIC50: > 4.00
--
Molecule: CN1CCC(NC(=O)c2coc(Nc3ncc4c(n3)N(C3CCCC3)CCC(=O)N4C)n2)CC1 [Example 265]
Study System: recombinant Plk1 (Homo sapiens, UniProt P53350)
pIC50: > 4.00
--
Molecule: CN1C(=O)CCN(C2CCCC2)c2nc(Nc3ccc(S(N)(=O)=O)cc3)ncc21 [Example 123]
Study System: recombinant Plk1 (Homo sapiens, UniProt P53350)
pIC50: > 4.00
--
Molecule: COc1cc(C(=O)NC2CCNC2)ccc1Nc1ncc2c(n1)N(C1CCCC1)CCC(=O)N2C (stereo not drawn) [Example 45]
Study System: recombinant Plk1 (Homo sapiens, UniProt P53350)
pIC50: > 6.52
--
Molecule: COCCN1CCC(NC(=O)c2ccc(Nc3ncc4c(n3)N(C3CCCC3)CCC(=O)N4C)c(OC)c2)CC1 [Example 29]
Study System: recombinant Plk1 (Homo sapiens, UniProt P53350)
pIC50: > 6.52
--
Molecule: CCCNC(=O)c1ccc(Nc2ncc3c(n2)N(C2CCCC2)CCC(=O)N3C)c(OC)c1 [Example 93]
Study System: recombinant Plk1 (Homo sapiens, UniProt P53350)
pIC50: > 6.00
--
Molecule: CCCC1CN(C2CCCC2)c2nc(Nc3ccc(C(=O)NC4CCN(C)CC4)cc3OC)ncc2N(C)C1=O (single isomer, unassigned) [Example 239]
Study System: recombinant Plk1 (Homo sapiens, UniProt P53350)
pIC50: > 4.00
--
Molecule: COCC(C)N1CCC(=O)N(C)c2cnc(Nc3ccc(C(=O)NC4CCN(C)CC4)cc3OC)nc21 (stereo not drawn) [Example 230]
Study System: recombinant Plk1 (Homo sapiens, UniProt P53350)
pIC50: > 6.00
--
Molecule: CN(C)CC(C)(C)CNC(=O)c1ccc(Nc2ncc3c(n2)N(c2ccccc2)CCC(=O)N3C)c(Cl)c1 [Example 225]
Study System: recombinant Plk1 (Homo sapiens, UniProt P53350)
pIC50: > 6.00
--
Molecule: CCCC1CN(C2CCCC2)c2nc(Nc3ccc(C(=O)NC4CCN(C)CC4)cc3OC)ncc2N(C)C1=O (single isomer, unassigned) [Example 238]
Study System: recombinant Plk1 (Homo sapiens, UniProt P53350)
pIC50: > 6.00

###

System: human colon tumour cell line HT29
Test: Cellular Assay (phosphohistone H3 Ser10 mitotic marker, HT29)
Assay type: cell-based
Conditions: HT-29, 24 h, HT29 cells, read-out: Cell IC50

Compound Structure: COc1cc(C(=O)NCCN(C)C)ccc1Nc1ncc2c(n1)N(C1CCCC1)CCC(=O)N2C
IC50: 92 nM

###

Molecular target: recombinant Plk1 (Homo sapiens, UniProt P53350)
Assay: In Vitro Plk1 Enzyme Assay (SPA, GST-Cdc25C phosphorylation)
Details: ATP 64 nM, 90 minutes, read-out: IC50 (Plk1 enzyme inhibition)

Compound: COc1cc(C(=O)NCCCN)ccc1Nc1ncc2c(n1)N(C1CCCC1)CCC(=O)N2C [Example 42]
Study System: recombinant Plk1 (Homo sapiens, UniProt P53350)
IC50: < 300 nM
//
Compound: COc1cc(C(=O)NC2CCN(C)CC2)ccc1Nc1ncc2c(n1)N(C(C)C)CCC(=O)N2C [Example 6]
Study System: recombinant Plk1 (Homo sapiens, UniProt P53350)
IC50: < 300 nM
//
Compound: CN1C(=O)CCN(C2CCCC2)c2nc(Nc3ccncc3)ncc21 [Example 268]
Study System: recombinant Plk1 (Homo sapiens, UniProt P53350)
IC50: < 100000 nM
//
Compound: CN(C)CCOc1ccc(Nc2ncc3c(n2)N(C2CCCC2)CCC(=O)N3C)cc1 [Example 118]
Study System: recombinant Plk1 (Homo sapiens, UniProt P53350)
IC50: < 100000 nM
//
Compound: CN1CCC(NC(=O)c2ccc(Nc3ncc4c(n3)N(C3CCCC3)CCC(=O)N4C)cn2)CC1 [Example 270]
Study System: recombinant Plk1 (Homo sapiens, UniProt P53350)
IC50: < 300 nM
//
Compound: COc1cc(C(=O)NCCCCN)ccc1Nc1ncc2c(n1)N(C1CCCC1)CCC(=O)N2C [Example 40]
Study System: recombinant Plk1 (Homo sapiens, UniProt P53350)
IC50: < 300 nM
//
Compound: COc1cc(C(=O)NCCN2CCOCC2)ccc1Nc1ncc2c(n1)N(c1ccccc1)CCC(=O)N2C [Example 220]
Study System: recombinant Plk1 (Homo sapiens, UniProt P53350)
IC50: < 1000 nM
//
Compound: COc1cc(C(=O)NC2CCN(C)CC2)ccc1Nc1ncc2c(n1)N(CC(=N)OC(C)CC(C)C)CCC(=O)N2C (centres unmarked) [Example 272]
Study System: recombinant Plk1 (Homo sapiens, UniProt P53350)
IC50: < 1000 nM
